Cited source: patent US5030638A

# IC50 listing for each entry below
Target system: almond β-glucosidase
Experiment description: Beta-glucosidase inhibition assay, pH 7.4
Assay type: biochemical
Assay conditions: pH 7.4; read-out: Enzyme Inhibition-IC50, Almond β-Glucosidase pH 7.4
Report only the number, with the unit µM understood.

Sample records with IC50:
* CN1C[C@H](O)[C@@H](O)[C@H](O)[C@H]1CO [Methyl, N-methyl-deoxynojirimycin, reference compound] | 102
* CCCCCN1C[C@H](O)[C@@H](O)[C@H](O)[C@H]1CO | 15
* CCCCCCCCCN1C[C@H](O)[C@@H](O)[C@H](O)[C@H]1CO | 18

// next item, IC50 requested
## Task Identify measured IC50 corresponding to CCCCCCN1C[C@H](O)[C@@H](O)[C@H](O)[C@H]1CO
## Result 4.8

###

Target system: almond β-glucosidase
Experiment description: Beta-glucosidase inhibition assay, pH 4.8
Format: biochemical
Assay conditions: read-out: Enzyme Inhibition-IC50, Almond β-Glucosidase pH 4.8
# pIC50 listing for each entry below
When answering, recall that pIC50 equals minus log10 of the concentration in mol/L, and write that number alone.

* CN1C[C@H](O)[C@@H](O)[C@H](O)[C@H]1CO [Methyl, N-methyl-deoxynojirimycin, reference compound] | 3.44
* CCCCCCN1C[C@H](O)[C@@H](O)[C@H](O)[C@H]1CO | 3.84
* CCCCCN1C[C@H](O)[C@@H](O)[C@H](O)[C@H]1CO | 3.37

## Task Identify measured pIC50 corresponding to CCCCCCCCCN1C[C@H](O)[C@@H](O)[C@H](O)[C@H]1CO
## Result 3.71

###

Target system: yeast α-glucosidase (Saccharomyces cerevisiae)
Construct: purchased Sigma
Experiment description: Alpha-glucosidase inhibition assay, pH 7.4
Type: biochemical
Value type: pIC50
When answering, recall that pIC50 equals minus log10 of the concentration in mol/L, and write that number alone.

## Task Write down measured pIC50 (yeast α-glucosidase (Saccharomyces cerevisiae)) for this molecule. CCCCN1C[C@H](O)[C@@H](O)[C@H](O)[C@H]1CO [N-Butyl-DNJ, Nbutyl-deoxynojirimycin, reference compound]
## Result 3.27

## Task Write down measured pIC50 (yeast α-glucosidase (Saccharomyces cerevisiae)) for this molecule. CCCCCCCCCN1C[C@H](O)[C@@H](O)[C@H](O)[C@H]1CO [Example 3, 1,5(Nonylimino)-1,5-dideoxy-D-glucitol]
## Result 3.57

## Task Write down measured pIC50 (yeast α-glucosidase (Saccharomyces cerevisiae)) for this molecule. CN1C[C@H](O)[C@@H](O)[C@H](O)[C@H]1CO [Methyl, N-methyl-deoxynojirimycin, reference compound]
## Result 4.27

###

# Toxicity listing for each entry below
Tested on: Sheep choroid plexus (SCP) cells
Experiment description: Toxicity in control wells (without virus) of the plaque reduction assay
Type: cell-based
Design: key: 0: no toxicity; 4: total cell lysates
Assay conditions: 10 μM, graded 0 to 4
Just the number, please.

- CCCCCCN1C[C@H](O)[C@@H](O)[C@H](O)[C@H]1CO: 0
- CCCCN1C[C@H](O)[C@@H](O)[C@H](O)[C@H]1CO [N-Butyl-DNJ, Nbutyl-deoxynojirimycin, reference compound]: 0
- CCCCCCCCCN1C[C@H](O)[C@@H](O)[C@H](O)[C@H]1CO: 0

## Task Identify measured Toxicity corresponding to CCCCCCCCCCCCCCN1C[C@H](O)[C@@H](O)[C@H](O)[C@H]1CO
## Result 1

###

Test system: almond β-glucosidase
Experiment description: Beta-glucosidase inhibition assay, pH 7.4
Type: biochemical
Assay conditions: ratio of IC50 values; numerically almond pH 4.8 / almond pH 7.4
Value type: Inhibition Index (first, head is drawing 3)
Just the number, please.

* CCCCCCCCCN1C[C@H](O)[C@@H](O)[C@H](O)[C@H]1CO | 10.8
* CN1C[C@H](O)[C@@H](O)[C@H](O)[C@H]1CO [Methyl, N-methyl-deoxynojirimycin, reference compound] | 3.5
* CCCCCN1C[C@H](O)[C@@H](O)[C@H](O)[C@H]1CO | 28.2

// next item, Inhibition Index (first, head is drawing 3) requested
## Task Write down measured Inhibition Index (first, head is drawing 3) (almond β-glucosidase) for this compound. CCCCCCN1C[C@H](O)[C@@H](O)[C@H](O)[C@H]1CO
## Result 30

###

Tested on: almond β-glucosidase
Experiment description: Beta-glucosidase inhibition assay, pH 7.4
Assay type: biochemical
Assay conditions: ratio of IC50 values; numerically yeast α pH 7.4 / almond β pH 7.4
# Inhibition Index (second, head is drawing 4) listing for each entry below

Sample records with Inhibition Index (second, head is drawing 4):
* CCCCCCN1C[C@H](O)[C@@H](O)[C@H](O)[C@H]1CO | 77.3
* CCCCCCCCCN1C[C@H](O)[C@@H](O)[C@H](O)[C@H]1CO | 14.8
* CCN1C[C@H](O)[C@@H](O)[C@H](O)[C@H]1CO [Ethyl, reference compound] | ~ 1

## Task Identify measured Inhibition Index (second, head is drawing 4) corresponding to CN1C[C@H](O)[C@@H](O)[C@H](O)[C@H]1CO [Methyl, N-methyl-deoxynojirimycin, reference compound]
## Result 0.53

## Task Identify measured Inhibition Index (second, head is drawing 4) corresponding to CCCCCN1C[C@H](O)[C@@H](O)[C@H](O)[C@H]1CO
## Result 29.5

###

Target system: yeast α-glucosidase (Saccharomyces cerevisiae, UniProt P53341)
Construct: purchased Sigma
Sequence (P53341 whole entry): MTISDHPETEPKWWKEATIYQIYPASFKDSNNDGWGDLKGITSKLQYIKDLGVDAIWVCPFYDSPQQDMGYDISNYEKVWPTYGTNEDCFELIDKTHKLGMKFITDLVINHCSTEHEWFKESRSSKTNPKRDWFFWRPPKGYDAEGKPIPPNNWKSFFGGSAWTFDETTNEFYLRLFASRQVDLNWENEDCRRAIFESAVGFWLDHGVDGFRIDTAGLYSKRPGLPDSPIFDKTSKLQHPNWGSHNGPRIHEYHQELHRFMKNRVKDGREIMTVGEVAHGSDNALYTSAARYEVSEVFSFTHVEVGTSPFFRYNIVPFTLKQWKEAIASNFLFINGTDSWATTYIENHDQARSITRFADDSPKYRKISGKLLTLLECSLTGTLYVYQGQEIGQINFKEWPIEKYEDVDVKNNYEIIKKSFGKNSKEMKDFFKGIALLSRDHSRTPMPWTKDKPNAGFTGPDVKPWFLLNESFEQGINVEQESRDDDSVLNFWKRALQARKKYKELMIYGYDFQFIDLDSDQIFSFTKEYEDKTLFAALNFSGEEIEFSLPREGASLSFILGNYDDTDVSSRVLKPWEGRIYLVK
Experiment description: Alpha-glucosidase inhibition assay, pH 7.4
Type: biochemical
Assay conditions: pH 7.4; read-out: Enzyme Inhibition-IC50, Yeast α-Glucosidase pH 7.4
Value type: IC50
Write the numeric value and follow it with the unit.

* CCCCCCN1C[C@H](O)[C@@H](O)[C@H](O)[C@H]1CO [Example 2, 1,5-(Hexylimino)-1,5-dideoxy-D-glucitol] | 371 µM

// next item, IC50 requested
## Task Identify measured IC50 corresponding to CCCCCN1C[C@H](O)[C@@H](O)[C@H](O)[C@H]1CO [Example 1, 1,5-(Pentylimino)-1,5-dideoxy-D-glucitol]
## Result 444 µM
